Read-out: ABC Transporter (ABCC3), ABCC3 (gene 8714)
Assay: LTEA_HepaRG_ABCC3: Life Technologies and Expression Analysis (LTEA) Assay for ABC Transporter (ABCC3) using HepaRG (AID 2283462)
Settings: mRNA level, 48 h; actives raise or lower the signal
Active and inactive are the calls of the source. How the source made its calls: active means hit-call score of the fitted dose curve at least 0.9, where 1 is the maximum; inactive means score below 0.9.
In this exercise, the only acceptable responses are active, inactive

SMILES STRUCTURE: CC(C)(C)CC(C)(C)c1ccc(O)cc1
CLASS ASSIGNMENT: inactive

# input Fill in: this test's call for "C=CC(=O)OCCCCCC(C)C" is ___
# output inactive

# input Which result was noted for this compound in the test: "CC(C)(c1ccccc1)c1ccc(O)c(C(C)(C)c2ccccc2)c1"
# output inactive

# input # fetch the recorded call for "COc1cc(-c2ccc(N)c(OC)c2)ccc1N" here
# output inactive

# input What outcome does the record of this test show for "O=[N+]([O-])c1ccc(O)c([N+](=O)[O-])c1" ?
# output active

----------
Test: ATG_ERE_CIS: Attagene CIS-FACTORIAL HepG2 Assay for Estrogen Response Element (ERE) (AID 2282940)
Settings: HepG2 ERE cis-reporter, Attagene RNA transcript; actives raise or lower the signal
Activity calls are given as the source filed them. Rule for the calls: active = hit-call score of the fitted dose curve at least 0.9, where 1 is the maximum; inactive = score below 0.9.
PROPERTY MEASURED: AC50

Answered cases to consult:
COMPOUND: C=C(C)C(=O)[O][Sn]([CH2]CCC)([CH2]CCC)[CH2]CCC
AC50: inactive
--
COMPOUND: O=C(OC1CCCCC1)c1ccccc1C(=O)OC1CCCCC1
AC50: 29.2 µM (active)
--
COMPOUND: CC1CN1P(=O)(N1CC1C)N1CC1C (stereo unspecified)
AC50: inactive
--
COMPOUND: COP(=S)(OC)Oc1ccc(S(=O)(=O)N(C)C)cc1
AC50: inactive

# input So what's the measured AC50 for this one? CC(C)(c1ccc(OCC2CO2)cc1)c1ccc(OCC2CO2)cc1 (stereo unspecified)
# output inactive

# input So what's the measured AC50 for this one? "CC(=[OH+])/C=C(/C)[O-].CC(=[OH+])/C=C(/C)[O-].CC(=[OH+])/C=C(/C)[O-].[Fe]"
# output inactive

----------
Read-out: Monocyte Chemoattractant Protein-1 (MCP1), CCL2 (gene 6347)
Experiment: BSK_CASM3C_MCP1: BioMAP Diversity Plus: CASM3C Assay for Monocyte Chemoattractant Protein-1 (MCP1) Biomarker Activity (AID 2283046);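 further: MCP-1 level quantified by ELISA 24 h after dosing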
Conditions: primary human coronary artery smooth muscle cells; actives raise or lower the signal
Calls of active or inactive are those of the source. Rule for the calls: active = hit-call score of the fitted dose curve at least 0.9, where 1 is the maximum; inactive = score below 0.9.
Outcomes you can answer with include only these: 1 (yes) (active), 0 (no) (inactive)

Please review the following examples before continuing.
COMPOUND: NC(=O)O
CLASS ASSIGNMENT: 0 (no)
//
COMPOUND: C=C(C)C(=O)[O][Sn]([CH2]CCC)([CH2]CCC)[CH2]CCC
CLASS ASSIGNMENT: 1 (yes)
//
COMPOUND: O=C(O)C(Cl)(Cl)Cl
CLASS ASSIGNMENT: 0 (no)
//
COMPOUND: Nc1ccc(-c2ccc(N)c(Cl)c2)cc1Cl
CLASS ASSIGNMENT: 0 (no)
//
COMPOUND: Oc1cccc2cccnc12
CLASS ASSIGNMENT: 0 (no)

# input What classification did "Oc1ccc(-c2ccccc2)cc1" end up with in this test?
# output 0 (no)

# input // param item: "O=C(O)C(F)(F)C(F)(F)C(F)(F)C(F)(F)C(F)(F)C(F)(F)F" ; yields the recorded call
# output 0 (no)

# input Please indicate how the test categorized "O=c1[nH]c(=O)[nH]c(=O)[nH]1" .
# output 0 (no)

# input I'd appreciate the recorded outcome for CCC(=O)C(CC(C)N(C)C)(c1ccccc1)c1ccccc1 (stereo not given) from this test.
# output 0 (no)

----------
Biological target: Aryl hydrocarbon receptor (Homo sapiens)
Assay: ATG_Ahr_CIS: Attagene CIS-FACTORIAL HepG2 Assay for human Aryl Hydrocarbon Receptor (Ahr) (AID 2282930)
Conditions: HepG2 AhR cis-factorial reporter transcription; actives raise or lower the signal
Active and inactive are the calls of the source. Rule for the calls: active = hit-call score of the fitted dose curve at least 0.9, where 1 is the maximum; inactive = score below 0.9.
// one of active, inactive, no free text

COMPOUND: N#CCCO
STUDY TARGET: Aryl hydrocarbon receptor (Homo sapiens)
CLASS ASSIGNMENT: inactive

# input Short answer needed: outcome of this test for "O=C/C=C/c1ccccc1" ?
# output inactive

# input Lab log entry: "NC(=S)Nc1ccccc1" — outcome as called in the assay?
# output inactive

# input Query: recorded result category for "O=c1[nH]c(=O)[nH]c(=O)[nH]1" in this test
# output inactive

# input Per the assay record, what outcome was assigned to "COP(=O)(OC)O/C(=C\Cl)c1cc(Cl)c(Cl)cc1Cl" ?
# output inactive

----------
Read-out: Plasminogen activator inhibitor-1 (PAI1), SERPINE1 (gene 5054)
Assay: BSK_BE3C_PAI1: BioMAP Diversity Plus: BE3C Assay for Plasminogen activator inhibitor-1 (PAI1) Biomarker Activity (AID 2283037)
Conditions: primary human bronchial epithelial cells; actives raise or lower the signal
Description: BSK_BE3C is a cell-based, multiplexed-readout assay that uses bronchial epithelial cell, a human lung primary cell, with measurements taken at 24 hours after chemical dosing in a 96-well plate.BSK_BE3C_PAI1 is an assay component measured in the BSK_BE3C assay. It measures PAI-1 antibody related to regulation of gene expression using ELISA technology.Data from the assay component BSK_BE3C_PAI1 was analyzed into 1 assay endpoint. […]
Calls of active or inactive are those of the source. The calls were made as follows: active = hit-call score of the fitted dose curve at least 0.9, where 1 is the maximum; inactive = score below 0.9.
Hi! Could you answer with just one of these? active, inactive

Reference set, count: 8
COMPOUND: ClCC(Cl)CCl
CLASS ASSIGNMENT: inactive
//
COMPOUND: CCOP(=S)(OCC)Oc1ccc(S(C)=O)cc1 (stereo not given)
CLASS ASSIGNMENT: inactive
//
COMPOUND: CC(C)(OO)c1ccccc1
CLASS ASSIGNMENT: inactive
//
COMPOUND: OCc1ccco1
CLASS ASSIGNMENT: inactive
//
COMPOUND: CCCCCCCCC(=O)NCc1ccc(O)c(OC)c1
CLASS ASSIGNMENT: active
//
COMPOUND: COc1cc(OC)nc(NC(=O)NS(=O)(=O)c2ncccc2C(=O)N(C)C)n1
CLASS ASSIGNMENT: inactive
//
COMPOUND: ClC(Cl)=C(Cl)C(Cl)=C(Cl)Cl
CLASS ASSIGNMENT: active
//
COMPOUND: CCNc1nc(NC(C)(C)C)nc(SC)n1
CLASS ASSIGNMENT: inactive

# input What did the test return for "CC1(C)Cc2cccc(O)c2O1" ?
# output inactive

# input I'd appreciate the recorded outcome for "CC(C)(C)c1cc(O)ccc1O" from this test.
# output active

# input Assay result, entry "O=C(O)C(F)(F)C(F)(F)C(F)(F)C(F)(F)C(F)(F)C(F)(F)F" — outcome?
# output inactive

# input Lab log entry: CCCCC(CC)CO[N+](=O)[O-] (stereo not given) — outcome as called in the assay?
# output inactive

# input Write down the call the test reported for this compound. Item: CCSC(C)CC1CC(=O)C(C(CC)=NOC/C=C/Cl)=C(O)C1 (stereo not given)
# output inactive

# input What call does the record list for CCC(=O)C(CC(C)N(C)C)(c1ccccc1)c1ccccc1 (stereo not given) ?
# output inactive

# input Kindly provide the recorded test outcome for the following compound: "O=C(OC1CCCCC1)c1ccccc1C(=O)OC1CCCCC1"
# output inactive

# input // param item: "C=C(C)C(=O)[O][Sn]([CH2]CCC)([CH2]CCC)[CH2]CCC" ; yields the recorded call
# output active

# input What call does the record list for "O=S(=O)(c1ccc(Cl)cc1)c1ccc(Cl)cc1" ?
# output inactive

# input What did this assay record as the result for "COP(=S)(OC)Oc1ccc(S(=O)(=O)N(C)C)cc1" ?
# output inactive

# input Which outcome did this test record for the compound "C(=NC1CCCCC1)=NC1CCCCC1" ?
# output inactive

# input Assay result, entry "CCCCCCCCc1ccc(O)cc1" — outcome?
# output active

----------
Assay: BSK_SAg_Proliferation: Cell Proliferation Assessment in the BioMAP Diversity Plus: SAg Assay (AID 2283095);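 further: relative cell number as total protein by SRB absorbance in sub-confluent culture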
Settings: primary human HUVEC with PBMC
Activity calls are given as the source filed them. How the source made its calls: active means hit-call score of the fitted dose curve at least 0.9, where 1 is the maximum; inactive means score below 0.9.
Just give me one of these, please: active, inactive

COMPOUND: CCOP(=S)(OCC)SCSP(=S)(OCC)OCC
CLASS ASSIGNMENT: active

COMPOUND: O=[N+]([O-])c1ccc(O)c([N+](=O)[O-])c1
CLASS ASSIGNMENT: inactive

COMPOUND: O=[N+]([O-])c1ccc2c3c(cccc13)CC2
CLASS ASSIGNMENT: inactive

COMPOUND: O=C(OC1CCCCC1)c1ccccc1C(=O)OC1CCCCC1
CLASS ASSIGNMENT: active

COMPOUND: CN(C)N=O
CLASS ASSIGNMENT: inactive

# input # lookup: test call for CCCCC(CC)CO[N+](=O)[O-] (configuration not stated)
# output inactive

# input Hi, do you know how "C(=NC1CCCCC1)=NC1CCCCC1" came out in this test?
# output active
